Cited source: PubChem BioAssay AID1159580

# assay.overview: chemical genetic growth profiling, strain panel (AID 1159580);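 note: tested at 20 µM; growth read once vehicle control cultures reached saturation at 30 °C; 1 = growth at the plate median or of vehicle wells; lower values mean less growth of the strain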
# experimental.context: S. cerevisiae deletion strains, growth OD, locus YJR066W, strain TOR1, hits give low values
About 2,000 (36%) of roughly 5,500 compounds were called active. Roughly 18% stayed inconclusive and do not appear here. The list shows a part of the results.
test.readout: normalized growth
Answers are plain numbers.

// below: answered molecules
C=Cc1c(C)c2[n-]c1=Cc1[n-]c(c(CC)c1C)C=c1[n-]c3c(c1C)C(=O)C(C(=O)[O-])C=3c1[n-]c(c(C)c1CCC(=O)[O-])C=2.[Cu] (centres undefined) ... 0.957
Cc1cc(C)cc(OCC2CNC(=O)O2)c1 (centres undefined) ... 0.99
C[C@H](CCC(=O)O)[C@H]1CCC2C3C(CC[C@@]21C)[C@@]1(C)CC[C@@H](O)C[C@H]1C[C@H]3O (some centres undefined) ... 0.862
O=S(=O)([O][Al])OC[C@H]1O[C@@](COS(=O)(=O)[O][Al])(O[C@H]2O[C@H](COS(=O)(=O)[O][Al])[C@@H](OS(=O)(=O)[O][Al])[C@H](OS(=O)(=O)[O][Al])[C@H]2OS(=O)(=O)[O][Al])[C@@H](OS(=O)(=O)[O][Al])[C@@H]1OS(=O)(=O)[O][Al] ... 0.958
N#Cc1ccc(NC(=O)Nc2cccc3ccccc23)cc1 ... 0.972

I would be grateful if you could provide normalized growth for each of the following entries.
1. C=C1C(C2(C)C=CC(=O)C(C)(C)C2CC(=O)OC)CC[C@@]2(C)[C@H](c3ccoc3)OC(=O)C3OC132 (some centres undefined)
2. O=C(Nc1ccccc1)c1ccccc1O
3. COc1cc(OC)c(OC)cc1C=O
4. O=C(Nc1ccccc1)Nc1ccccc1
5. C[C@@H]1O[C@@H](O[C@H]2C[C@@H](O)[C@]3(CO)C4C(CC[C@]3(O)C2)[C@@]2(O)CC[C@H](C3=CC(=O)OC3)[C@@]2(C)C[C@H]4O)[C@H](O)[C@H](O)[C@H]1O (some centres undefined)
6. NS(=O)(=O)c1cc2c(cc1Cl)NC(C1CC3C=CC1C3)NS2(=O)=O (centres undefined)

stdout:
1: 0.932; 2: 0.901; 3: 0.916; 4: 0.95; 5: 0.989; 6: 0.976

---

# assay.overview: chemical genetic growth profiling, strain panel (AID 1159580);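 note: tested at 20 µM; growth read once vehicle control cultures reached saturation at 30 °C; 1 = growth at the plate median or of vehicle wells; lower values mean less growth of the strain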
# experimental.context: S. cerevisiae deletion strains, growth OD, strain wtn01, hits give low values
The campaign covered roughly 5,500 compounds. About 2,000 (36%) were called active. Not shown: some 18% with an inconclusive outcome. The list shows a part of the results.
Would you mind telling me the reported normalized growth of each entry?
Answers are plain numbers.

// below: answered molecules
COc1c2ccoc2nc2c(OC)c(OCC(O)C(C)(C)O)ccc12 (configuration not stated) ... 1.02
COC(=O)CCC(=O)O[C@H]1CCC2(C)C(CCC3C2C(=O)[C@@H](O)C2(C)C3CC3OC4(CCC(C)CO4)[C@@H](C)C32)C1 (some centres not stated) ... 1

I would be grateful if you could provide normalized growth for each of the following entries.
1. COc1ccc(C(=O)CC(=O)c2ccc(C(C)(C)C)cc2)cc1
2. O=C(Nc1ccccc1)c1ccccc1O
3. COc1cc(C)c(C(=O)Oc2cc(C)c(C(=O)O)c(O)c2C)c(OC)c1C
4. CN1CCN(C2=Nc3ccccc3Oc3ccc(Cl)cc32)CC1

stdout:
0.996
0.907
1.04
0.992

I would be grateful if you could provide normalized growth for each of the following entries.
1. COC(=O)CCC(C)[C@H]1CCC2C3C(C[C@H](O)[C@@]21C)[C@@]1(C)CC[C@@H](O)C[C@H]1C[C@H]3O (some centres not stated)
2. COC(=O)c1c(C)cc(OC(=O)c2c(C)cc(O)c(C=O)c2O)c(C)c1O
3. COc1cc(OC)c(OC)cc1C=O
4. CC(=O)OCC(=O)[C@@]1(O)[C@H](OC(C)=O)CC2C3CCC4=CC(=O)C=C[C@]4(C)[C@@]3(F)[C@@H](O)C[C@@]21C (some centres not stated)
5. Cc1cc(O)c(C)c2c1C(=O)Oc1c(C)c(O)c(C(=O)O)c(C)c1O2
6. CCOC(=O)[C@H](CCc1ccccc1)N[C@@H](C)C(=O)N1Cc2ccccc2C[C@H]1C(=O)O

stdout:
1.01
0.948
0.978
1
0.98
1
